Where these numbers come from: patent US8609719B2

MEASUREMENT_NOTES: clinical
CONDITIONS: human, in vivo, 100 mg, AUC (T), Patient 6; termination analysis Week 9; after ladostigil tartrate 100 mg twice daily
PARAMETER_MEASURED: AUC(0-t)

# return recorded AUC(0-t) for entry C#CCN[C@@H]1CCc2ccc(OC(=O)N(C)CC)cc21
901 ng·h/mL

====

# Cmax values compiled below
MEASUREMENT_NOTES: Pharmacokinetic analysis of ladostigil and metabolites in Alzheimer's disease patients
CONDITIONS: human, in vivo, 100 mg, Cmax (T), Patient 7; termination analysis Week 9; after ladostigil tartrate 100 mg twice daily
Structures can show the parent of a compound that is named as a salt.

C#CCN[C@@H]1CCc2ccc(OC(=O)NC)cc21 [R-MCPAI, hydrochloride]
1 µM
CNC(=O)Oc1ccc2c(c1)[C@H](N)CC2 [R-MCAI, hydrochloride]
0.2 µM

Note: attention shifts to another entry.
# return recorded Cmax for entry C#CCN[C@@H]1CCc2ccc(OC(=O)N(CC)CO)cc21 [R-HCPAI]
2.1 µM

====

MEASUREMENT_NOTES: Pharmacokinetic analysis of ladostigil and metabolites in Alzheimer's disease patients
CONDITIONS: human, in vivo, 100 mg, AUC (M), Patient 7; maintenance analysis Week 4; after ladostigil tartrate 100 mg twice daily
Structures can show the parent of a compound that is named as a salt.
PARAMETER_MEASURED: AUC (ng·h/mL)
State just the number; it will be interpreted in ng·h/mL.

C#CCN[C@@H]1CCc2ccc(OC(=O)NC)cc21 [R-MCPAI, hydrochloride]
212
C#CCN[C@@H]1CCc2ccc(OC(=O)N(CC)CO)cc21
519

# return recorded AUC for entry CNC(=O)Oc1ccc2c(c1)[C@H](N)CC2 [R-MCAI, hydrochloride]
213

====

MEASUREMENT_NOTES: clinical
CONDITIONS: human, in vivo, 100 mg, AUC (T), Patient 3; termination analysis Week 9; after ladostigil tartrate 100 mg twice daily
PARAMETER_MEASURED: AUC(0-t) (ng·h/mL)
State just the number; it will be interpreted in ng·h/mL.

# return recorded AUC(0-t) for entry C#CCN[C@@H]1CCc2ccc(OC(=O)N(C)CC)cc21
1450

====

MEASUREMENT_NOTES: Pharmacokinetic analysis of ladostigil and metabolites in Alzheimer's disease patients
CONDITIONS: human, in vivo, 100 mg, AUC (M), Patient 2; maintenance analysis Week 4; after ladostigil tartrate 100 mg twice daily
Structures can show the parent of a compound that is named as a salt.
PARAMETER_MEASURED: AUC (ng·h/mL)
State just the number; it will be interpreted in ng·h/mL.

Some solved entries appear below for comparison.
CNC(=O)Oc1ccc2c(c1)[C@H](N)CC2 [R-MCAI, hydrochloride]
121
C#CCN[C@@H]1CCc2ccc(OC(=O)N(CC)CO)cc21
600

Note: attention shifts to another entry.
# return recorded AUC for entry C#CCN[C@@H]1CCc2ccc(OC(=O)NC)cc21 [R-MCPAI, hydrochloride]
103

====

# AUC values compiled below
MEASUREMENT_NOTES: Pharmacokinetic analysis of ladostigil and metabolites in Alzheimer's disease patients
CONDITIONS: human, in vivo, 100 mg, AUC (M), Patient 8; maintenance analysis Week 4; after ladostigil tartrate 100 mg twice daily
Counter-ions that a name gives are not always drawn.
State just the number; it will be interpreted in ng·h/mL.

CNC(=O)Oc1ccc2c(c1)[C@H](N)CC2 [R-MCAI, hydrochloride]
86
C#CCN[C@@H]1CCc2ccc(OC(=O)N(CC)CO)cc21 [R-HCPAI]
1510

Note: attention shifts to another entry.
# return recorded AUC for entry C#CCN[C@@H]1CCc2ccc(OC(=O)NC)cc21 [R-MCPAI, hydrochloride]
304

====

MEASUREMENT_NOTES: Pharmacokinetic analysis of ladostigil and metabolites in Alzheimer's disease patients
CONDITIONS: human, in vivo, 100 mg, AUC (T), Patient 5; termination analysis Week 9; after ladostigil tartrate 100 mg twice daily
Counter-ions that a name gives are not always drawn.
# AUC(0-t) values compiled below
State just the number; it will be interpreted in ng·h/mL.

Some solved entries appear below for comparison.
C#CCN[C@@H]1CCc2ccc(OC(=O)NC)cc21 [R-MCPAI, hydrochloride]
551
CNC(=O)Oc1ccc2c(c1)[C@H](N)CC2 [R-MCAI, hydrochloride]
895

Note: attention shifts to another entry.
# return recorded AUC(0-t) for entry C#CCN[C@@H]1CCc2ccc(OC(=O)N(CC)CO)cc21
1650

====

TARGET_OR_TEST_SYSTEM: MAO-B (Rattus norvegicus)
Construct: from tissue; host or cells: brain, liver and intestine (duodenum) of dosed rats
Sequence (P19643 whole entry): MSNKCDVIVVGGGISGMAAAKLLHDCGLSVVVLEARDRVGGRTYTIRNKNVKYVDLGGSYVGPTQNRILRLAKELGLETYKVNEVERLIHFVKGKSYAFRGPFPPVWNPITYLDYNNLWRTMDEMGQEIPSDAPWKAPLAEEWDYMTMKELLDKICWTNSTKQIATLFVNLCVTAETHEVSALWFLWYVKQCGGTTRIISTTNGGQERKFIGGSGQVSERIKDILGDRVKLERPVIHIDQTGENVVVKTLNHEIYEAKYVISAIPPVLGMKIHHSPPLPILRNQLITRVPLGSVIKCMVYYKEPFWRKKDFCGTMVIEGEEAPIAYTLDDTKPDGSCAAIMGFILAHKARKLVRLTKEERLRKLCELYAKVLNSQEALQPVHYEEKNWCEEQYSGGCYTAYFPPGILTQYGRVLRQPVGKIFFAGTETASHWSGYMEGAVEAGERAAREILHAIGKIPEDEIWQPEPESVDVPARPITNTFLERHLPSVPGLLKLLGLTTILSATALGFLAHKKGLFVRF
MEASUREMENT_NOTES: Inhibition of MAO activity in vitro (PEA substrate)
Format: biochemical
Structures can show the parent of a compound that is named as a salt.
PARAMETER_MEASURED: IC50 (µM)
State just the number; it will be interpreted in µM.

# return recorded IC50 for entry C#CCN[C@@H]1CCc2ccc(OC(=O)NC)cc21 [R-MCPAI, hydrochloride]
42

====

MEASUREMENT_NOTES: Pharmacokinetic analysis of ladostigil and metabolites in Alzheimer's disease patients
CONDITIONS: both, human, in vivo, 100 mg, Cmax (M), mean, mean of patients; maintenance analysis Week 4; after ladostigil tartrate 100 mg twice daily
Counter-ions that a name gives are not always drawn.
PARAMETER_MEASURED: Cmax (M)
State just the number; it will be interpreted in M.

Some solved entries appear below for comparison.
C#CCN[C@@H]1CCc2ccc(OC(=O)N(CC)CO)cc21
3.63e-06
C#CCN[C@@H]1CCc2ccc(OC(=O)NC)cc21 [R-MCPAI, hydrochloride]
1.29e-06

# return recorded Cmax for entry CNC(=O)Oc1ccc2c(c1)[C@H](N)CC2 [R-MCAI, hydrochloride]
2.7e-07

====

MEASUREMENT_NOTES: clinical
CONDITIONS: human, in vivo, 100 mg, Cmax (T), Patient 7; termination analysis Week 9; after ladostigil tartrate 100 mg twice daily
PARAMETER_MEASURED: Cmax (nM)
State just the number; it will be interpreted in nM.

# return recorded Cmax for entry C#CCN[C@@H]1CCc2ccc(OC(=O)N(C)CC)cc21
400

====

# AUC(0-t) values compiled below
MEASUREMENT_NOTES: Pharmacokinetic analysis of ladostigil and metabolites in Alzheimer's disease patients
CONDITIONS: human, in vivo, 100 mg, AUC (T), Patient 7; termination analysis Week 9; after ladostigil tartrate 100 mg twice daily
Counter-ions that a name gives are not always drawn.
State just the number; it will be interpreted in ng·h/mL.

Some solved entries appear below for comparison.
C#CCN[C@@H]1CCc2ccc(OC(=O)N(CC)CO)cc21
1040
C#CCN[C@@H]1CCc2ccc(OC(=O)NC)cc21 [R-MCPAI, hydrochloride]
584

Note: attention shifts to another entry.
# return recorded AUC(0-t) for entry CNC(=O)Oc1ccc2c(c1)[C@H](N)CC2 [R-MCAI, hydrochloride]
186

====

MEASUREMENT_NOTES: clinical
CONDITIONS: human, in vivo, 100 mg, AUC (T), Patient 5; termination analysis Week 9; after ladostigil tartrate 100 mg twice daily
PARAMETER_MEASURED: AUC(0-t)
The reply should consist of the numeric value with the unit placed after it.

# return recorded AUC(0-t) for entry C#CCN[C@@H]1CCc2ccc(OC(=O)N(C)CC)cc21
398 ng·h/mL

====

MEASUREMENT_NOTES: Pharmacokinetic analysis of ladostigil and metabolites in Alzheimer's disease patients
CONDITIONS: human, in vivo, 100 mg, Cmax (M), Patient 3; maintenance analysis Week 4; after ladostigil tartrate 100 mg twice daily
Where a name gives a salt, the structure may show the parent alone.
# Cmax values compiled below
The reply should consist of the numeric value with the unit placed after it.

Some solved entries appear below for comparison.
CNC(=O)Oc1ccc2c(c1)[C@H](N)CC2 [R-MCAI, hydrochloride]
3e-07 M
C#CCN[C@@H]1CCc2ccc(OC(=O)NC)cc21 [R-MCPAI, hydrochloride]
1.2e-06 M

# return recorded Cmax for entry C#CCN[C@@H]1CCc2ccc(OC(=O)N(CC)CO)cc21
3.7e-06 M

====

MEASUREMENT_NOTES: clinical
CONDITIONS: human, in vivo, 100 mg, AUC (M), Patient 6; maintenance analysis Week 4; after ladostigil tartrate 100 mg twice daily
PARAMETER_MEASURED: AUC (ng·h/mL)
State just the number; it will be interpreted in ng·h/mL.

# return recorded AUC for entry C#CCN[C@@H]1CCc2ccc(OC(=O)N(C)CC)cc21 [ladostigil]
551

====

MEASUREMENT_NOTES: clinical
CONDITIONS: human, in vivo, 100 mg, Cmax (M), Patient 3; maintenance analysis Week 4; after ladostigil tartrate 100 mg twice daily
PARAMETER_MEASURED: Cmax (M)
State just the number; it will be interpreted in M.

# return recorded Cmax for entry C#CCN[C@@H]1CCc2ccc(OC(=O)N(C)CC)cc21
3.5e-06
